assayed_target: Hck (UniProt P08631)
Sequence (P08631 whole entry, looked up): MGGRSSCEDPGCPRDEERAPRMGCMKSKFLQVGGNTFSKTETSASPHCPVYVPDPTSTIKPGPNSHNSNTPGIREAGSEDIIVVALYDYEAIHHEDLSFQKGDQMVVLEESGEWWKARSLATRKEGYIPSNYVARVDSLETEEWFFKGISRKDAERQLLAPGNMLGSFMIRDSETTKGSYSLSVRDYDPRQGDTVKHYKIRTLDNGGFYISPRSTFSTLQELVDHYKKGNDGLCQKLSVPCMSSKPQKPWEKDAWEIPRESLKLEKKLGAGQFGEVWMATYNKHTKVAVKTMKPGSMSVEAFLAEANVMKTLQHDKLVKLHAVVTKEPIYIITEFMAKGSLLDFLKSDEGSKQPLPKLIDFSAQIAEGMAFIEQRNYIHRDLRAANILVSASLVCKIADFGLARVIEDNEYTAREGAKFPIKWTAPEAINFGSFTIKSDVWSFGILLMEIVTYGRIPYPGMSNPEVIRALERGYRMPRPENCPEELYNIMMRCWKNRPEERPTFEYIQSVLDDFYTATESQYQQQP
measurement_description: phosphorylation enrichment, bacterial display (enrichment ratio); higher = better substrate or ligand; peptides without Tyr show the background;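 note: 11-residue human phosphosite peptides and single-mutation variants displayed on the E. coli surface, counted by deep sequencing, each peptide's frequency after selection divided by its frequency in the unselected input library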;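 note: frequency after pTyr selection over input frequency; kinase dosed for 20-30% of maximal phosphorylation in three min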
The label depends only on phosphorylation enrichment: yes (1) if it is at least 0.7, no (0) if it is smaller.

-- ask Could you please find out whether FPRAWYRRSIA [KIAA1109_Y4272] has phosphorylation enrichment that meets 0.7 or exceeds it?
-- reply no (0)

-- ask Exam item: decide whether the reported phosphorylation enrichment for ANVKWYRSGRE is at least 0.7.
-- reply no (0)

-- ask Could you verify whether the entry HLWRIYYDITD [MMP27_Y307] shows phosphorylation enrichment of no less than 0.7?
-- reply yes (1)

-- ask Decide: phosphorylation enrichment of LYSINYLHFGD [KDM4C_Y201_E206D] >= 0.7?
-- reply yes (1)

-- ask Say whether HKGASYVFRLS [PTPRD_Y891] shows phosphorylation enrichment of 0.7 or more.
-- reply no (0)

-- ask Assess whether reported phosphorylation enrichment for NVTRKYSRQIL [MAP3K2_Y463_T464S] sits at 0.7 or higher.
-- reply no (0)

-- ask Answer whether phosphorylation enrichment of PINEPYGDDLD [JUP_Y693_M697L] is greater than or equal to 0.7.
-- reply no (0)

-- ask Check if phosphorylation enrichment >= 0.7 (inclusive). Item: MKGDYYRYLAE [YWHAG_Y131]
-- reply yes (1)

-- ask Quick check: does QNVADYMRCLM [RPL5_Y207_Y210C] have phosphorylation enrichment greater than or equal to 0.7?
-- reply no (0)

-- ask Answer whether phosphorylation enrichment of LGQRIYQFIRS [DYRK1B_Y271_Q275R_YF] is greater than or equal to 0.7.
-- reply yes (1)

-- ask Tell me whether phosphorylation enrichment is at least 0.7 here: GGPTFYIDTNA [ACTL6A_Y69_YF]
-- reply no (0)

-- ask Reported phosphorylation enrichment at or above 0.7? KNDSNYVVKGN [KIT_Y823]
-- reply no (0)

-- ask Quick check, phosphorylation enrichment >= 0.7? HQPGEYIFHAE [FLT3_Y416]
-- reply yes (1)

-- ask Is phosphorylation enrichment for VFPIDYYFPPQ [AR_Y552_L548F] at or above 0.7?
-- reply yes (1)

-- ask Has RFWPRYVKVGS [NOG_Y172] a recorded phosphorylation enrichment greater than or equal to 0.7?
-- reply yes (1)

-- ask Does phosphorylation enrichment meet or surpass 0.7 for DERQPYVHMNG [IGF1R_Y1346_A1347V] ?
-- reply no (0)

-- ask # check: phosphorylation enrichment of ASPKSYPSQKH [CAP2_Y316_T311A] is greater than or equal to 0.7
-- reply no (0)

-- ask Kindly determine if phosphorylation enrichment recorded for DEEPPYRGPFC [SASH1_Y551] is above or exactly 0.7.
-- reply no (0)

-- ask Check this sequence for phosphorylation enrichment at or above 0.7: SSPVLYLSPET [TJP1_Y931_P930L]
-- reply no (0)

-- ask Quick check, phosphorylation enrichment >= 0.7? QGLRLYRPHLP [BTK_Y617_A622P]
-- reply no (0)

-- ask State whether the measured phosphorylation enrichment reaches 0.7, counting equality as reaching it, for VLTSKYCGGGG [HBA1_Y141_R142C]
-- reply no (0)

-- ask Quick check: does CQASLYPSNHD [LRIG1_Y996_G993A] have phosphorylation enrichment greater than or equal to 0.7?
-- reply no (0)

-- ask API: above_or_equal(metric=phosphorylation enrichment, cutoff=0.7) for item TPIYPYLLPKS [PLD2_Y580_T577I]
-- reply no (0)

-- ask Test whether the sequence FASTGYVIAIQ [GRIN2B_Y762_G763V] records phosphorylation enrichment of 0.7 or higher.
-- reply no (0)

-- ask Exam item: decide whether the reported phosphorylation enrichment for KDGSGYISAAE [CALM1_Y100_N98S] is at least 0.7.
-- reply no (0)

-- ask Does AVPSLYASGRT [ACTA1_Y145_L142P] have a reported phosphorylation enrichment of at least 0.7?
-- reply yes (1)

Provenance of the data: the supplement of paper PMC10065799
